Test system: NCI-H522 lung
assay_comment: NCI tumour cell line growth inhibition, 48 h
assay_metric: TGI

Inquiry: Any idea what TGI was measured for O=C(Nc1nc2ncn(CC(COc3ccccc3)OC(=O)c3ccccc3)c2c(=O)[nH]1)c1ccccc1 (stereo not drawn) ?
Reply text: > 100 µM

Inquiry: Which TGI reading was recorded for the compound Cc1nc(NC(=O)CCCN2C(=O)c3cccc4cccc(c34)C2=O)sc1C(=O)Nc1cc(C(=O)NCCCN(C)C)n(C)c1 ?
Reply text: > 100 µM

Inquiry: May I ask what TGI has been recorded for CC(CO)C1=CC(C#CCOCc2ccccc2)N(C(=O)Oc2ccccc2)c2ccccc21 (stereo not drawn) ?
Reply text: 37.3 µM

Inquiry: Requested field: TGI. Item: N#Cc1cc([N+](=O)[O-])ccc1NC(=O)C(=O)C(C(=O)/C=C/c1ccccc1)C1OC(=O)c2ccccc21 (stereo not drawn)
Reply text: > 100 µM

Inquiry: Reported TGI for NCCC(O)(P(=O)(O)O)P(=O)(O)O : what is it?
Reply text: > 100 µM

Inquiry: What value of TGI has been recorded for this entry: Cc1[nH]c(=O)[nH]c(=O)c1CO
Reply text: > 100 µM

Inquiry: // query TGI value for entry O=C(CCc1cccc(O)c1)NCCc1ccc(O)cc1
Reply text: > 100 µM

Inquiry: Sample COc1ccc(C(c2c(O)c3ccccc3n(C)c2=O)c2c(O)c3ccccc3n(C)c2=O)cc1 — what was its TGI?
Reply text: 60 µM

Inquiry: Please look up its TGI: CC(=O)Oc1ccccc1C(=O)O
Reply text: > 100 µM

Inquiry: Request the reported TGI associated with COc1ccc2c(c1)CCC1C2CC[C@]2(C)/C(=N/OC(=O)Cc3ccccc3)CCC12 (stereo partly drawn)
Reply text: 32.8 µM

Inquiry: GET /values?readout=TGI&item= NCc1nnn(Cc2ccccc2)c1N
Reply text: > 100 µM

Inquiry: Any idea what TGI was measured for N#CC1=C(N)OC(c2ccc([N+](=O)[O-])cc2)C1(C#N)C#N (stereo not drawn) ?
Reply text: 17.8 µM

Inquiry: Given the entry O=C1C(=O)C(Br)(Br)C(Br)=C1Br , report its measured TGI.
Reply text: 6.68 µM

* * *

System: OVCAR-5 ovarian
assay_comment: NCI tumour cell line growth inhibition, 48 h
For each record, write down the corresponding TGI.
API: value field is a number in µM; no unit string.

Inquiry: Find the recorded TGI belonging to C=C1C(=O)O[C@H]2[C@H]1CC/C(COC(=O)NCc1c[nH]c3ccc(Cl)cc13)=C\CC[C@@]1(C)O[C@@H]21 and report it.
Reply text: 4.01

Inquiry: What value of measured TGI is listed for CCOC(=O)c1sc(Nc2ccc(Cl)cc2)nc1C ?
Reply text: 6.63

Inquiry: State the recorded TGI for this entry: CC(C)n1c2c([n+](C)c1/C=C/c1ccccc1)C(=O)c1ccccc1C2=O
Reply text: 1.28

Inquiry: Quick one: TGI for CC1=C(C(=O)Nc2ccc(Cl)c(Cl)c2)C(c2ccco2)C(C(=O)Nc2ccc(Cl)c(Cl)c2)=C(C)N1 ?
Reply text: 29.3

* * *

Tested on: PC-3 prostate
assay_comment: NCI tumour cell line growth inhibition, 48 h
For each record, write down the corresponding GI50.

Inquiry: Record CCCN(CCC)c1ccc(/C=N/NC(=O)c2cccnc2)c(Cl)c1 : what is its GI50 with PC-3 prostate?
Reply text: 14.1 µM

Inquiry: Give GI50 (PC-3 prostate) of the following compound: C[C@@H]1C=C2C(=O)O[C@@H]3CC[C@H](C1)[C@]23O
Reply text: 3.68 µM

Inquiry: Missing value: GI50, PC-3 prostate, entry Cc1nc(NC(=O)CCCN2C(=O)c3cccc4cccc(c34)C2=O)sc1C(=O)Nc1cc(C(=O)NCCCN(C)C)n(C)c1 . Fill in?
Reply text: > 100 µM

Inquiry: # get_value(readout= GI50, system= PC-3 prostate) for COc1ccc(-c2ccc(C3CC(c4ccc(Cl)cc4)=NN3)o2)c([N+](=O)[O-])c1 (stereo not given)
Reply text: > 100 µM

Inquiry: Which GI50 is reported with PC-3 prostate for this entry: CCC(=C/[C@H](C)C/C=C/C(C)=C/[C@@H](C)C(=O)[C@@H](C)[C@H](O)[C@@H](C)CC)/C=C/[C@H]1OC(=O)C=C[C@H]1C ?
Reply text: < 0.01 µM

* * *

Test system: OVCAR-4 ovarian
assay_comment: NCI tumour cell line growth inhibition, 48 h
assay_metric: GI50

Inquiry: Give the measured GI50 of CCOC(=O)c1sc(=S)c2c(C(=O)OCC)c(C(=O)OCC)sc2c1C(=O)OCC .
Reply text: 20700 nM

Inquiry: Returns the measured GI50 for the input compound. Input: COc1ccc([N+](=O)[O-])c(S(=O)(=O)c2ccc(Cl)cc2)n1
Reply text: 2320 nM

Inquiry: For the compound shown here, COc1cc(C(=O)c2cc3c(cc2C)OCO3)cc(OC)c1OC , give the reported GI50.
Reply text: 830 nM

* * *

For each of the molecules below, state its TGI.
System: HCT-116 colon
assay_comment: NCI tumour cell line growth inhibition, 48 h

Inquiry: # returns recorded TGI (system: HCT-116 colon) for CCOC(=O)[C@@]12CCC(C1=O)[C@](C)(O)C[C@@H]2c1ccccc1
Reply text: > 100 µM

Inquiry: Param readout= TGI; system= HCT-116 colon; entry= CC(=O)O[C@H]1C(=O)[C@@]2(C)C(C(OC(=O)c3ccccc3)[C@]3(O)CC(OC(=O)C(O)C(NC(=O)c4ccc(C)cc4)c4ccccc4)C(C)=C1C3(C)C)[C@]1(OC(C)=O)CO[C@@H]1C[C@@H]2O (stereo partly drawn) ; returns value.
Reply text: 0.411 µM

Inquiry: I'm curious: which TGI was measured for COc1cc(C(=O)c2cc3c(cc2C)OCO3)cc(OC)c1OC tested on HCT-116 colon?
Reply text: > 100 µM

* * *

Tested on: U251 CNS
assay_comment: NCI tumour cell line growth inhibition, 48 h
Assign TGI to each entry below.

Inquiry: Which TGI is listed for COC(=O)CCC/C=C\C[C@H]1C=CC(=O)/C1=C/C[C@@H](O)C/C=C\CC(F)(F)F ?
Reply text: 4.32 µM

Inquiry: Entry under review: O=C(COc1ccccc1)NS(=O)(=O)c1ccccc1 . Reported TGI?
Reply text: > 100 µM

Inquiry: Entry O=[n+]1c2ccccc2n([O-])c2cc(Br)ccc21 has what TGI?
Reply text: 78.8 µM

Inquiry: # TGI lookup, item CC12CCC[C@@](C)(C(=O)OC3OC(CO)C(O)C(O)C3O)[C@H]1CCC13CC4CC(OC4(CO)[C@H]1O)[C@@H]23 (stereo not given in full)
Reply text: > 100 µM

Inquiry: Which TGI value belongs to COc1ccc2c(c1)CCC1C2CC[C@]2(C)/C(=N/OC(=O)Cc3ccccc3)CCC12 (stereo not given in full) ?
Reply text: 37.4 µM

Inquiry: # query: TGI of entry c1ccc2c(c1)Nc1nc3nonc3nc1N2
Reply text: > 100 µM

Inquiry: Which TGI value belongs to O=C(OCC1OC(c2nn[nH]n2)C(OC(=O)c2ccccc2)C1OC(=O)c1ccccc1)c1ccccc1 (stereo not given) ?
Reply text: > 100 µM

Inquiry: Fill blank: measured TGI of the compound COP1(=O)Oc2ccccc2C(=O)C(C(F)(F)F)(C(F)(F)F)O1 (stereo not given) is ____.
Reply text: > 100 µM

Inquiry: Return reported TGI; argument: OCC12C3C4C1C1C2C3C41CO (stereo not given)
Reply text: > 100 µM

Inquiry: For the compound COC(=O)[C@]1(C)CCC[C@@]2(C)C1CCC1=CC3(C(C)C)CCC12OO3 (stereo not given in full) , what TGI is on record?
Reply text: > 100 µM

Inquiry: Quick one: TGI of COc1cccc(N2C(=O)CSC2c2cc(OC)c(OC)c(OC)c2)c1 (stereo not given) ?
Reply text: > 100 µM

Inquiry: Query: TGI; subject: O=C(O)CC/C(=N\Nc1nsc2ccccc12)c1ccc(Cl)cc1
Reply text: 82.4 µM

Inquiry: Form field: reported TGI of Cc1ccc(-c2csc(=Nc3c(C)n(C)n(-c4ccccc4)c3=O)n2CCO)cc1
Reply text: > 100 µM

Inquiry: Recorded TGI for CCOC(=O)c1c(-c2ccc(OC)cc2)c(C#N)c(=S)n(C2OC(CO)C(O)C(O)C2O)c1-c1ccccc1 (stereo not given) , please?
Reply text: > 100 µM

Inquiry: Which TGI reading was recorded for the compound Cc1cc(Cl)cc2c1NC(=O)C2(O)C(C)C(=O)c1ccc(Cl)cc1 (stereo not given) ?
Reply text: > 100 µM

Inquiry: Value lookup for TGI; key = Oc1ccc(Cn2c(-c3ccc(O)c(O)c3)nc3ccccc32)cc1O
Reply text: 47.1 µM

Inquiry: TGI for Cc1nc(NC(=O)CCCN2C(=O)c3cccc4cccc(c34)C2=O)sc1C(=O)Nc1cc(C(=O)NCCCN(C)C)n(C)c1 ?
Reply text: > 100 µM

Inquiry: What does the data say about its TGI? Entry: O=C(Nc1c(O)[nH]c(=S)[nH]c1=O)c1ccc2ccccc2n1
Reply text: > 100 µM

Inquiry: Consider the compound CCOC(=O)[C@@]12CCC(C1=O)[C@](C)(O)C[C@@H]2c1ccccc1 and give its measured TGI.
Reply text: > 100 µM

Inquiry: Please look up its TGI: NC(=S)N/N=C1/C(=O)N(c2ccc(Cl)cc2Cl)C(=O)C(=O)C1c1nc2ccccc2s1 (stereo not given)
Reply text: > 100 µM

Inquiry: Recorded TGI for CCOC(=O)c1[nH]c2ccccc2c1C(=O)C[C@H](NC(=O)C(F)(F)F)C(=O)OC , please?
Reply text: > 100 µM

Inquiry: Report TGI for C=C1C(=O)O[C@H]2[C@H]1CC/C(COC(=O)NCc1c[nH]c3ccc(Cl)cc13)=C\CC[C@@]1(C)O[C@@H]21 please.
Reply text: 3.08 µM

Inquiry: # TGI lookup, item FC(F)(Sc1ccccc1)c1nc2ccccc2o1
Reply text: > 100 µM

Inquiry: Report TGI for NS(=O)(=O)c1ccc(N2N=C3c4ccccc4CC3C2c2ccc(Cl)cc2)cc1 (stereo not given) please.
Reply text: 42.5 µM

Inquiry: Returns the measured TGI for the input compound. Input: CCOP(=O)(C=C=C(C)C)OCC
Reply text: > 100 µM

Inquiry: Item CC(C)(C)c1ccc(C(O)c2ccc(C(C)(C)C)cc2)cc1 has what recorded TGI?
Reply text: 25.8 µM

Inquiry: Given COc1ccc(/C=C/C(=O)N[C@@H]2C(=O)N3[C@@H]2SC(C)(C)[C@@H]3C(=O)O)cc1 , state its recorded TGI.
Reply text: > 100 µM

Inquiry: Which TGI is listed for COc1cc2c3c(n(CCCNCCCNCCCn4c5c(c6ccccc6c4=O)C(=O)c4ccccc4-5)c(=O)c2cc1OC)-c1cc2c(cc1C3=O)OCO2 ?
Reply text: 0.0205 µM

Inquiry: Recorded TGI of COc1ccc(NC(=O)c2sc3nc(C)c(C(O)c4ccccc4)cc3c2N)cc1 (stereo not given) , please.
Reply text: > 100 µM

Inquiry: Recorded TGI of Cc1ccccc1CN1CC=c2ccccc2=N1 , please.
Reply text: > 100 µM

Inquiry: What value of measured TGI is listed for O=S(CCCl)c1c2ccccc2nc2ccccc12 (stereo not given) ?
Reply text: > 100 µM

Inquiry: Form field: reported TGI of O=C(CCCl)NNC1=NCCN1
Reply text: > 100 µM

Inquiry: I have this compound here, COC(=O)C1=C(CO)C2C=CC1C2 (stereo not given) , and I need its recorded TGI.
Reply text: > 100 µM

Inquiry: Item under review: O=c1[nH]nc(Cc2ccc(Cl)cc2)n1/N=C\CC/C=N\n1c(Cc2ccc(Cl)cc2)n[nH]c1=O . Reported TGI?
Reply text: 46 µM

Inquiry: // lookup TGI for Cc1ccc(C)c(-c2csc(Nc3ccc(C)c(C)c3)n2)c1
Reply text: > 100 µM

Just for reference, PubChem BioAssay (NCI) is where these values come from.
